Test system: pitted morningglory
Test: Test F preemergence test
Type: in vivo, Ipomoea lacunosa
Details: Preemergence; 16 g ai/ha; scale 0 to 100
propertyLabel: Plant response rating, Morningglory
Numbers only.

Please review the following examples before continuing.
Cc1cc[n+]([O-])c(S(=O)(=O)C(Cl)c2c(C(F)(F)F)nn(C)c2Cl)c1 (racemic)
0
Cc1cc[n+]([O-])c(S(=O)(=O)C(C)c2c(C(F)(F)F)nn(C)c2OC(F)F)c1 (stereo not drawn)
0
Cn1nc(C(F)(F)F)c(CS(=O)(=O)c2cccc[n+]2[O-])c1OC(F)F
0
Cc1cc[n+]([O-])c([S+]([O-])Cc2c(C(F)(F)F)nn(C)c2Cl)c1 (racemic)
0
Cc1cc[n+]([O-])c([S+]([O-])Cc2c(C(F)(F)F)nn(C)c2OCC(F)(F)F)c1 (racemic)
20

// next entry
Provide Plant response rating, Morningglory, system pitted morningglory, entry Cc1cc[n+]([O-])c([S+]([O-])Cc2c(C(F)(F)F)nn(C)c2OC(F)F)c1 (stereo not drawn)
10

* * *

Tested on: wheat
Assay: Test A pre-/postemergence greenhouse test
Assay type: in vivo, Triticum aestivum
Conditions: Preemergence, 500 g ai/ha; 0 to 100 scale where 0 is no effect and 100 is complete control
So I've got a bunch of compounds here, and I need their Plant response rating, Wheat values.

Please review the following examples before continuing.
Cn1nc(C(F)(F)F)c(CS(=O)(=O)c2cc(C(C)(C)C)cc[n+]2[O-])c1OCC(F)(F)F
70
Cn1nc(C(F)(F)F)c(C[S+]([O-])c2ccc(F)c[n+]2[O-])c1OC(F)F (stereo not shown)
100
Cc1cc(S(=O)(=O)Cc2c(C(F)(F)F)nn(C)c2OCC(F)(F)F)[n+]([O-])cc1Cl
40

Hey, quick one: what's Plant response rating, Wheat for each of these?
1. O=S(=O)(Cc1c(C(F)(F)F)nn(CC(F)(F)F)c1Cl)c1ccc(Cl)c[n+]1[O-]
2. CC(c1c(C(F)(F)F)nn(C)c1Cl)[S+]([O-])c1cccc[n+]1[O-] (mixture of isomers)
3. CC(c1c(C(F)(F)F)nn(CC(F)(F)F)c1Cl)[S+]([O-])c1cccc[n+]1[O-] (stereo not shown)
4. Cc1cc[n+]([O-])c([S+]([O-])Cc2c(C(F)(F)F)nn(CC(F)(F)F)c2Cl)c1 (stereo not shown)

1: 0; 2: 30; 3: 60; 4: 80

* * *

So I've got a bunch of compounds here, and I need their Plant response rating, Kochia values.
Tested on: kochia
Assay: Test F preemergence test
Type: in vivo, Kochia scoparia
Conditions: Preemergence; 31 g ai/ha; scale 0 to 100

Please review the following examples before continuing.
Cc1cc([S+]([O-])Cc2c(C(F)(F)F)nn(C)c2OCC(F)(F)F)[n+]([O-])cc1Cl (stereo not shown) [Compound 70]
95
Cc1cc[n+]([O-])c([S+]([O-])Cc2c(C(F)(F)F)nn(C)c2OC(F)F)c1 (stereo not shown) [Compound 1]
35
Cn1nc(C(F)(F)F)c(C[S+]([O-])c2ccc(F)c[n+]2[O-])c1OCC(F)(F)F (stereo not shown) [Compound 67]
60

// next entry
Return reported Plant response rating, Kochia. Input compound: Cn1nc(C(F)(F)F)c(C[S+]([O-])c2cccc[n+]2[O-])c1Cl (stereo not shown) [Compound 8]
0

* * *

Tested on: kochia
Assay: Test F preemergence test
Format: in vivo, Kochia scoparia
Conditions: Preemergence; 31 g ai/ha; scale 0 to 100
So I've got a bunch of molecules here, and I need their Plant response rating, Kochia values.
One number for each entry.

Cc1cc[n+]([O-])c(S(=O)(=O)C(Cl)c2c(C(F)(F)F)nn(C)c2OCC(F)(F)F)c1 (racemic)
0
Cc1cc[n+]([O-])c(S(=O)(=O)Cc2c(C(F)(F)F)nn(C)c2OC(F)F)c1
0
Cn1nc(C(F)(F)F)c(CS(=O)(=O)c2cccc[n+]2[O-])c1OC(F)F
75

Hey, quick one: what's Plant response rating, Kochia for each of these?
1. CCn1nc(C(F)(F)F)c(C[S+]([O-])c2cc(C)cc[n+]2[O-])c1OCC(F)(F)F (racemic)
2. CC(Oc1c(CS(=O)(=O)c2cccc[n+]2[O-])c(C(F)(F)F)nn1C)C(F)(F)F (centres unmarked)

1. 0
2. 100

* * *

Tested on: common ragweed
Test: Test F preemergence test
Format: in vivo, Ambrosia elation
Settings: Preemergence, 62 g ai/ha; scale 0 to 100
propertyLabel: Plant response rating, Ragweed
Give bare numbers.

Please review the following examples before continuing.
CC(Oc1c(C[S+]([O-])c2cccc[n+]2[O-])c(C(F)(F)F)nn1C)C(F)(F)F (stereo not drawn)
65
CCn1nc(C(F)(F)F)c(C[S+]([O-])c2cc(C)cc[n+]2[O-])c1OCC(F)(F)F (racemic)
70
Cc1cc([S+]([O-])Cc2c(C(F)(F)F)nn(C)c2OCC(F)(F)F)[n+]([O-])cc1Cl (stereo not drawn)
80
CCc1cc[n+]([O-])c(S(=O)(=O)Cc2c(C(F)(F)F)nn(C)c2OCC(F)(F)F)c1
65
Cn1nc(C(F)(F)C(F)(F)F)c(C[S+]([O-])c2cccc[n+]2[O-])c1OCC(F)(F)F (stereo not drawn)
100

Provide Plant response rating, Ragweed, system common ragweed, entry Cn1nc(C(F)(F)F)c(C[S+]([O-])c2ccc(F)c[n+]2[O-])c1OCC(F)(F)F (stereo not drawn)
90

* * *

Tested on: naked crabgrass
Assay: Test F preemergence test
Format: in vivo, Digitaria nuda
Details: Preemergence; 31 g ai/ha; scale 0 to 100
So I've got a bunch of compounds here, and I need their Plant response rating, Crabgrass, Naked values.
Numbers only.

Cn1nc(C(F)(F)F)c(C[S+]([O-])c2cccc[n+]2[O-])c1Cl (stereo not shown) [Compound 8]
75
CC(Oc1c(C[S+]([O-])c2ccc(Cl)c[n+]2[O-])c(C(F)(F)F)nn1C)C(F)(F)F (stereo not shown) [Compound 87]
100
Cn1nc(C(F)(F)F)c(C[S+]([O-])c2cccc[n+]2[O-])c1OCC(F)(F)F (racemic) [Compound 28]
90

Provide Plant response rating, Crabgrass, Naked, system naked crabgrass, entry Cc1cc[n+]([O-])c([S+]([O-])Cc2c(C(F)(F)F)nn(C)c2Cl)c1 (racemic) [Compound 20]
80

* * *

So I've got a bunch of compounds here, and I need their Crabgrass, Large plant response rating values.
System: crabgrass
Assay: Test A pre-/postemergence greenhouse test
Type: in vivo, Digitaria sanguinalis
Conditions: Preemergence, 125 g ai/ha; 0 to 100 scale, 0 no effect, 100 complete control
Answers are plain numbers.

Please review the following examples before continuing.
[O-][n+]1ccccc1[S+]([O-])Cc1c(C(F)(F)F)nn(CC(F)(F)F)c1Cl (centres unmarked) [Compound 43]
70
Cn1nc(C(F)(F)F)c(CS(=O)(=O)c2cc(C3CC3)cc[n+]2[O-])c1OCC(F)(F)F [Compound 119]
80
Cn1nc(C(F)(F)F)c(C[S+]([O-])c2ccc(Cl)c[n+]2[O-])c1OCC(F)(F)C(F)(F)F (centres unmarked) [Compound 89]
90
Cn1nc(C(F)(F)F)c(CS(=O)(=O)c2cc(C(C)(C)C)cc[n+]2[O-])c1OC(F)F [Compound 25]
90
Cn1nc(C(F)(F)F)c(C[S+]([O-])c2ccc(Cl)c[n+]2[O-])c1OCC(F)F (centres unmarked) [Compound 85]
80
Cn1nc(C(F)(F)F)c(C[S+]([O-])c2ccc(Cl)c[n+]2[O-])c1OC(F)F (centres unmarked) [Compound 6]
100

Hey, quick one: what's Crabgrass, Large plant response rating for each of these?
1. Cn1nc(C(F)(F)F)c(C(Cl)S(=O)(=O)c2cccc[n+]2[O-])c1Cl (centres unmarked) [Compound 12]
2. Cn1nc(C(F)(F)F)c(CS(=O)(=O)c2ccc(Cl)c[n+]2[O-])c1OC(F)F [Compound 7]

1: 70; 2: 90

* * *

Tested on: crabgrass
Experiment: Test C pre-/postemergence test
Type: in vivo, Digitaria sanguinalis
Details: Postemergence, 250 g ai/ha; scale 0 to 100, 0 no effect, 100 complete control
So I've got a bunch of compounds here, and I need their Plant response rating, Crabgrass, Large values.
Answers are plain numbers.

Please review the following examples before continuing.
CCn1nc(C(F)(F)F)c(C(C)S(=O)(=O)c2cccc[n+]2[O-])c1OCC(F)(F)F (centres unmarked)
0
Cn1nc(C(F)(F)F)c(C[S+]([O-])c2ccc(Cl)c[n+]2[O-])c1OCC(F)(F)F (racemic)
50
Cn1nc(C(F)(F)F)c(C[S+]([O-])c2ccc(F)c[n+]2[O-])c1OC(F)F (centres unmarked)
45
CC(c1c(C(F)(F)F)nn(C)c1Cl)S(=O)(=O)c1ccc(Cl)c[n+]1[O-] (racemic)
0

// next entry
Return reported Plant response rating, Crabgrass, Large. Input compound: Cc1cc[n+]([O-])c(S(=O)(=O)Cc2c(C(F)(F)F)nn(C)c2OC(F)F)c1
40

These measurements were taken from patent US20100298141A1.
